Assay: Solubility
Format: physicochemical
Conditions: Biological Data table; read-out: Solubility
ASSAY_ENDPOINT: log10(solubility) (log10 of the value in µg/mL)
Recall that a logarithmic scale is used here: each number is log10 of solubility in µg/mL.

COMPOUND	NUMERIC_READOUT
CC(C)(C)c1ccc(S(=O)(=O)Nc2ccc3[nH]c(C(=O)Nc4cccnc4)c(-c4ccccc4)c3c2)cc1 [Example 2]	0.00
CCCNC(=O)c1[nH]c2ccc(NS(=O)(=O)c3ccc(OC(F)(F)F)cc3)cc2c1-c1ccccc1 [Example 10]	0.32

// field: log10(solubility); key: CN(C)CCNC(=O)c1[nH]c2ccc(NS(=O)(=O)c3ccc(C(C)(C)C)cc3)cc2c1-c1ccc(Cl)cc1 [Example 26] ; value = 0.48

// field: log10(solubility); key: CN(C)CCNC(=O)c1[nH]c2ccc(NS(=O)(=O)c3ccc(C(C)(C)C)cc3)cc2c1-c1ccccc1Cl [Example 24] ; value = 0.90

// field: log10(solubility); key: Cc1ccccc1-c1c(C(=O)NCCN(C)C)[nH]c2ccc(NS(=O)(=O)c3ccc(C(C)(C)C)cc3)cc12 [Example 28] ; value = 0.70

// field: log10(solubility); key: CN(C)CCNC(=O)c1[nH]c2ccc(NS(=O)(=O)c3ccc(C(C)(C)C)cc3)cc2c1-c1cccnc1 [Example 32] ; value = 1.74

// field: log10(solubility); key: CCCNC(=O)c1[nH]c2ccc(NS(=O)(=O)c3ccc(C(C)(C)C)cc3)cc2c1-c1ccccc1 [Example 9] ; value = 0.18

// field: log10(solubility); key: CC(C)(C)c1ccc(S(=O)(=O)Nc2ccc3[nH]c(C(=O)NC4CC4)c(-c4ccccc4)c3c2)cc1 [Example 1] ; value = 0.00

// field: log10(solubility); key: CC(C)(C)c1ccc(S(=O)(=O)Nc2ccc3[nH]c(C(=O)NC4CCCCC4)c(-c4ccccc4)c3c2)cc1 [Example 3] ; value = 0.00

// field: log10(solubility); key: COc1ccc(-c2c(C(=O)NCCN(C)C)[nH]c3ccc(NS(=O)(=O)c4ccc(C(C)(C)C)cc4)cc23)cc1 [Example 31] ; value = 0.85

// field: log10(solubility); key: CN(C)CCNC(=O)c1[nH]c2ccc(NS(=O)(=O)c3ccc(C(C)(C)C)cc3)cc2c1-c1ccccc1 [Example 6] ; value = -1.00

// field: log10(solubility); key: CC(C)(C)c1ccc(S(=O)(=O)Nc2ccc3[nH]c(C(=O)NCCO)c(-c4ccccc4)c3c2)cc1 [Example 37] ; value = 1.11

====

Molecular target: soluble, sperm-specific adenylate cyclase (sAC) (Homo sapiens, UniProt Q96PN6)
Sequence (Q96PN6 whole entry): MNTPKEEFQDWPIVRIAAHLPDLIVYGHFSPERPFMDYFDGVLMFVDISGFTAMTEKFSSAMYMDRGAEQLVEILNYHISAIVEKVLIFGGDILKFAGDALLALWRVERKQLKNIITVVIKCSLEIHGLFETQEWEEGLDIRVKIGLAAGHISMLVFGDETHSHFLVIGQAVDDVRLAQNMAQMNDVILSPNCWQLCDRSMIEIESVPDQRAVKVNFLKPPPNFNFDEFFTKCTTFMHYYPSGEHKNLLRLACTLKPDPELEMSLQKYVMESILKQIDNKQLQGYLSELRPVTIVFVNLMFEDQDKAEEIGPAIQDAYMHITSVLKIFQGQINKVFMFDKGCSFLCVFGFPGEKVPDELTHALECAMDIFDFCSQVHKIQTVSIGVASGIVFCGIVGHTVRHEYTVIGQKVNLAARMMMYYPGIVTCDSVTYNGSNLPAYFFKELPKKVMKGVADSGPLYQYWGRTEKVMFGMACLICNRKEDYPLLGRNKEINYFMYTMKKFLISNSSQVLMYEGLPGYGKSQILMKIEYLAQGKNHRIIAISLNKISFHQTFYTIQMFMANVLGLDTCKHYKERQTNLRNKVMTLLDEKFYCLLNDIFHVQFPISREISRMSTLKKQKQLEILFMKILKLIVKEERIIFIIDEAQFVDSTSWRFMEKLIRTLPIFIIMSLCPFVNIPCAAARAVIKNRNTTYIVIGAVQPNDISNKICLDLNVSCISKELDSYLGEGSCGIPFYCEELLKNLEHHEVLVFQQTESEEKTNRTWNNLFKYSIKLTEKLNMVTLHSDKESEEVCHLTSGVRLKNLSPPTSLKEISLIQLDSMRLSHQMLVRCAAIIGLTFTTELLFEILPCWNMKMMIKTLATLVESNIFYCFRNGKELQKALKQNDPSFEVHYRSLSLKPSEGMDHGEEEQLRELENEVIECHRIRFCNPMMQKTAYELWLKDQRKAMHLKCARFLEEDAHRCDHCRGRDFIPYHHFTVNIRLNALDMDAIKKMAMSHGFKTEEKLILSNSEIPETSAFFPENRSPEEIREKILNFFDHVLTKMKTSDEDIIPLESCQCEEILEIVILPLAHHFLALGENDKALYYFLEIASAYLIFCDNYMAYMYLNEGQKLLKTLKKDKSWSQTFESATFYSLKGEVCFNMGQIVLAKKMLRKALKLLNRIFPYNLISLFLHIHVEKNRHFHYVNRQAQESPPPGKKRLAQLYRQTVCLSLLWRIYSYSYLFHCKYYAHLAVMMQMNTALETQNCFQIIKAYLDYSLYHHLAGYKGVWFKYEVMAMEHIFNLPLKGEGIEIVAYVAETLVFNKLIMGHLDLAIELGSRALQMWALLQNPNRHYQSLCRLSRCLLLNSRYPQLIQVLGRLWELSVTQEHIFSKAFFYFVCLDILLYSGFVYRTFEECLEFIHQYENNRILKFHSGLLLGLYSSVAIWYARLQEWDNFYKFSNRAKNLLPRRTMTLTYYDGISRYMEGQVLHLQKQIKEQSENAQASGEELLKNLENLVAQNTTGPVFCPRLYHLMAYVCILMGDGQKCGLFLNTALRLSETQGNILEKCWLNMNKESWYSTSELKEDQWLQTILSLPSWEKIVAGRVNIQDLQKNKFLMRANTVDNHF
Experiment: sAC-Assay (enzyme test, HTRF cAMP detection)
Type: biochemical
Details: Biological Data table
ASSAY_ENDPOINT: pIC50
Scale explanation: pIC50 corresponds to minus log10 of a concentration expressed in moles per litre.

Below are worked cases with known answers.
ITEM_SMILES	TARGET_OR_SYSTEM	pIC50
Cc1ccc(-c2c(C(=O)NCCN(C)C)[nH]c3ccc(NS(=O)(=O)c4ccc(C(C)(C)C)cc4)cc23)cc1	soluble, sperm-specific adenylate cyclase (sAC) (Homo sapiens, UniProt Q96PN6)	5.70
CC(C)(C)c1ccc(S(=O)(=O)Nc2ccc3[nH]c(C(=O)NC4CCCCC4)c(-c4ccccc4)c3c2)cc1	soluble, sperm-specific adenylate cyclase (sAC) (Homo sapiens, UniProt Q96PN6)	5.70
CN(C)CCNC(=O)c1[nH]c2ccc(NS(=O)(=O)c3ccc(C(C)(C)C)cc3)cc2c1-c1ccc(Cl)cc1	soluble, sperm-specific adenylate cyclase (sAC) (Homo sapiens, UniProt Q96PN6)	5.00

Next up:
I looked up `CC(C)(C)c1ccc(S(=O)(=O)Nc2ccc3[nH]c(C(=O)NC4CC4)c(-c4ccccc4)c3c2)cc1` and its pIC50 for soluble, sperm-specific adenylate cyclase (sAC) (Homo sapiens, UniProt Q96PN6) was 5.47

====

Molecular target: soluble, sperm-specific adenylate cyclase (sAC) (Homo sapiens, UniProt Q96PN6)
Assay: sAC-Assay (enzyme test, HTRF cAMP detection)
Format: biochemical
Details: Biological Data table
Parameter IC50: see the listing below.
Return type: number; implicit unit µM.

COMPOUND	TARGET_OR_SYSTEM	IC50 (µM)
Cc1ccccc1-c1c(C(=O)NCCN(C)C)[nH]c2ccc(NS(=O)(=O)c3ccc(C(C)(C)C)cc3)cc12 [Example 28]	soluble, sperm-specific adenylate cyclase (sAC) (Homo sapiens, UniProt Q96PN6)	2.7
CC(C)(C)c1ccc(S(=O)(=O)Nc2ccc3[nH]c(C(=O)NC4CCOCC4)c(-c4ccccc4)c3c2)cc1 [Example 40]	soluble, sperm-specific adenylate cyclase (sAC) (Homo sapiens, UniProt Q96PN6)	0.086

// field: IC50; key: CN(C)CCNC(=O)c1[nH]c2ccc(NS(=O)(=O)c3ccc(C(C)(C)C)cc3)cc2c1-c1ccccc1Cl [Example 24] ; value = 1.6

// field: IC50; key: CC(C)(C)c1ccc(S(=O)(=O)Nc2ccc3[nH]c(C(=O)Nc4ccncc4)c(-c4ccccc4)c3c2)cc1 [Example 21] ; value = 3.4

// field: IC50; key: CC(C)(C)c1ccc(S(=O)(=O)Nc2ccc3[nH]c(C(=O)NCCN4CCOCC4)c(-c4ccccc4)c3c2)cc1 [Example 19] ; value = 0.15
